FYI, the data here is from patent US20260015426A1.

Measured kon by item
# ASSAY TARGET: T1, hu-M-IL1RAP construct, positions S21-T367 (extracellular domain of the membrane form of human IL1RAP) (human, UniProt Q9NPH3 21-367)
# T1 construct: Biotinylated when captured on the Biacore chip
# T1 sequence: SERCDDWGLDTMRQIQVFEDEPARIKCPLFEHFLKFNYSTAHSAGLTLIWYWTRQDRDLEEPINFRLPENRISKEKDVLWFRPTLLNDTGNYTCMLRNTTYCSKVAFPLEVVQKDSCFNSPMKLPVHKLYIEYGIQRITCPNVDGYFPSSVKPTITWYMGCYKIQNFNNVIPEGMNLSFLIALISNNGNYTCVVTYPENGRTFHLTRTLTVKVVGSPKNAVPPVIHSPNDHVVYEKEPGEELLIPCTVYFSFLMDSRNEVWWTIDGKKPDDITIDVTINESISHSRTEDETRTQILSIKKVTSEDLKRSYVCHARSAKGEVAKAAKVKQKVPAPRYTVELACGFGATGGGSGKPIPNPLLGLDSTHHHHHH
# TEST DESCRIPTION: SPR, Fab analyte, 25 C
Write the answer as a number in M⁻¹ s⁻¹, unit excluded.

INSERT INTO assay_data (binder, parameter, units_text, value_reported) VALUES
  ('K9 Fab (VL A51D) (Fab, V domains shown, Fab with 8xHis tag) VH: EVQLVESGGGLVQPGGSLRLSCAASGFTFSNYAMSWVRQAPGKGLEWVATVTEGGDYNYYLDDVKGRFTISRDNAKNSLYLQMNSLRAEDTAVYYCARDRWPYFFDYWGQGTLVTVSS VL: DIQMTQSPSSLSASVGDRVTITCRASENIYSNLAWYQQKPGKSPKLLVYGDKNLADGVPSRFSGSGSGTDYTLTISSLQPEDFATYYCQHFWTTPRTFGGGTKVEIK', 'kon', 'M⁻¹ s⁻¹', '4.93e+06'),
  ('K11 Fab (VL A51R/K52G) (Fab, V domains shown, Fab with 8xHis tag) VH: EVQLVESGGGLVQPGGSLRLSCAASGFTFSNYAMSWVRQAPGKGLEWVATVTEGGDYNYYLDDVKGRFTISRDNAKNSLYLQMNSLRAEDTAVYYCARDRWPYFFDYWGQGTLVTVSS VL: DIQMTQSPSSLSASVGDRVTITCRASENIYSNLAWYQQKPGKSPKLLVYGRGNLADGVPSRFSGSGSGTDYTLTISSLQPEDFATYYCQHFWTTPRTFGGGTKVEIK', 'kon', 'M⁻¹ s⁻¹', '4.83e+06'),
  ('K7 Fab (VL A51R) (Fab, V domains shown, Fab with 8xHis tag) VH: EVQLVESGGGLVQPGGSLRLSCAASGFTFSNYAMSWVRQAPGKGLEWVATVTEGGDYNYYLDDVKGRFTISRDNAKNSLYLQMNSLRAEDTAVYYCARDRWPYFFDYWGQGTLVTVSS VL: DIQMTQSPSSLSASVGDRVTITCRASENIYSNLAWYQQKPGKSPKLLVYGRKNLADGVPSRFSGSGSGTDYTLTISSLQPEDFATYYCQHFWTTPRTFGGGTKVEIK', 'kon', 'M⁻¹ s⁻¹', '5.25e+06'),
  ('K4 Fab (VL W92L) (Fab, V domains shown, Fab with 8xHis tag) VH: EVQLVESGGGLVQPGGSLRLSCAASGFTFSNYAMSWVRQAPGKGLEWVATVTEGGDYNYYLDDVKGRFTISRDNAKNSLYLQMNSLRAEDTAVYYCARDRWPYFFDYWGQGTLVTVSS VL: DIQMTQSPSSLSASVGDRVTITCRASENIYSNLAWYQQKPGKSPKLLVYGAKNLADGVPSRFSGSGSGTDYTLTISSLQPEDFATYYCQHFLTTPRTFGGGTKVEIK', 'kon', 'M⁻¹ s⁻¹', '5.12e+06'),
  ('K1 Fab (VL Y30W) (Fab, V domains shown, Fab with 8xHis tag) VH: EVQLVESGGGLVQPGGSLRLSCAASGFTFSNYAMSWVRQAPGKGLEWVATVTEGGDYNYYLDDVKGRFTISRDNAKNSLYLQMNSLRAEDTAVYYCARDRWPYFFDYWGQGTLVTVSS VL: DIQMTQSPSSLSASVGDRVTITCRASENIWSNLAWYQQKPGKSPKLLVYGAKNLADGVPSRFSGSGSGTDYTLTISSLQPEDFATYYCQHFWTTPRTFGGGTKVEIK', 'kon', 'M⁻¹ s⁻¹', '4.82e+06');

Please report the measured kon for K12 Fab (VL W92I) (Fab, V domains shown, Fab with 8xHis tag) VH: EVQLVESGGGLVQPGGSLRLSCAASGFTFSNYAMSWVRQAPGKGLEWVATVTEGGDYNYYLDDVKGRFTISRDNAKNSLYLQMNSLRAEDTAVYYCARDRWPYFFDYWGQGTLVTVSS VL: DIQMTQSPSSLSASVGDRVTITCRASENIYSNLAWYQQKPGKSPKLLVYGAKNLADGVPSRFSGSGSGTDYTLTISSLQPEDFATYYCQHFITTPRTFGGGTKVEIK
5.58e+06

// fetch kon given entry K8 Fab (VL A51L) (Fab, V domains shown, Fab with 8xHis tag) VH: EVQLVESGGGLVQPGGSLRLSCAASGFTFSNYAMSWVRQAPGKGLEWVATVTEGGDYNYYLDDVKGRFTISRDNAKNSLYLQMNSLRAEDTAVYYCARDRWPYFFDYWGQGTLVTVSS VL: DIQMTQSPSSLSASVGDRVTITCRASENIYSNLAWYQQKPGKSPKLLVYGLKNLADGVPSRFSGSGSGTDYTLTISSLQPEDFATYYCQHFWTTPRTFGGGTKVEIK
5.15e+06
